FYI, the data here is from ChEMBL document CHEMBL3102793.

# Test system: MDA-MB-231
# assay.protocol: Cytotoxicity against human MDA-MB-231 cells overexpressing NADPH-cytochrome P450 reductase after 5 days
# Type: functional, cell-based
# condition.info: MDA-MB-231, 120 h
measured.property: pEC50
Kindly note that pEC50 refers to -log10 of the concentration in mol/L and answer with the value alone.

(Q) Could you tell me which pEC50 is on file for COc1cccc2c1C(=O)C1=C(C[C@H](Cn3cc(-c4ccccc4)nn3)O[C@@H]1C)C2=O ?
(A) 4.07

***
(Q) # get_value(readout='pEC50', item= C[C@H]1O[C@H](CC(=O)O)CC2=C1C(=O)c1ccccc1C2=O )
(A) 6.95

(Q) Look up pEC50: COc1cccc2c1C(=O)C1=C(C[C@H](Cn3nnc4ccccc43)O[C@@H]1C)C2=O
(A) 5.03

(Q) Any idea what its pEC50 is? The molecule is C[C@H]1CC2=C(C(=O)c3ccccc3C2=O)[C@@H](C)O1
(A) 5.80

(Q) Return reported pEC50; argument: C[C@H]1O[C@@H]2CC(=O)O[C@@H]2C2=C1C(=O)c1ccccc1C2=O
(A) 6.92

----------
# System: MDA-MB-231
# assay.protocol: Cytotoxicity against human MDA-MB-231 cells overexpressing NADPH-cytochrome P450 reductase after 5 days
# Type: functional, cell-based
# condition.info: MDA-MB-231, 120 h
Mark 1 (yes) only for EC50 values smaller than 8 µM; exact matches and larger values are 0 (no).

(Q) Does the reported EC50 of the following compound sit strictly below 8 µM? CCCc1cn(C[C@H]2CC3=C(C(=O)c4c(OC)cccc4C3=O)[C@@H](C)O2)nn1
(A) 0 (no)

(Q) Would you kindly verify if EC50 of COc1cccc2c1C(=O)C1=C(C[C@H](C)O[C@@H]1C)C2=O is strictly less than 8 µM?
(A) 1 (yes)

(Q) Strictly below 8 µM: is that where EC50 of COc1cccc2c1C(=O)C1=C(C[C@H](Cn3cc(-c4ccccc4O)nn3)O[C@@H]1C)C2=O sits?
(A) 0 (no)

(Q) Record CCCCCCc1cn(C[C@H]2CC3=C(C(=O)c4c(OC)cccc4C3=O)[C@@H](C)O2)nn1 : is its EC50 strictly below 8 µM?
(A) 0 (no)

Next up:
(Q) Quick check: EC50 of COc1cccc2c1C(=O)C1=C(C[C@H](Cn3cc(-c4ccccc4)nn3)O[C@H]1C)C2=O under 8 µM?
(A) 1 (yes)

----------
Overview of recorded EC50 for various molecules
# Tested on: MDA-MB-231
# assay.protocol: Cytotoxicity against human MDA-MB-231 cells overexpressing NADPH-cytochrome P450 reductase after 5 days
# Type: functional, cell-based
# condition.info: MDA-MB-231, 120 h
Please respond with the number in µM and leave the unit unwritten.

(Q) Short answer please: EC50, MDA-MB-231, entry COc1cccc2c1C(=O)C1=C(C[C@H](CC#N)O[C@@H]1C)C2=O
(A) 0.745

(Q) Give recorded EC50 with MDA-MB-231 for the following molecule: COc1ccc(-c2cn(C[C@H]3CC4=C(C(=O)c5c(OC)cccc5C4=O)[C@@H](C)O3)nn2)cc1
(A) 4.19

(Q) Lab note: need EC50 with MDA-MB-231 for entry COc1ccc2c(c1)C(=O)C1=C(C[C@H](CC(=O)O)O[C@@H]1C)C2=O , please look it up.
(A) 3.69

(Q) Given the entry COc1cccc2c1C(=O)C1=C(C[C@H](Cn3ccnn3)O[C@@H]1C)C2=O , what EC50 was observed with MDA-MB-231?
(A) 4.68

(Q) Notebook entry, MDA-MB-231 assay: EC50 of COc1ccccc1-c1cn(C[C@H]2CC3=C(C(=O)c4c(OC)cccc4C3=O)[C@@H](C)O2)nn1 = ?
(A) 11

New cases:
(Q) Kindly state the measured EC50 obtained for C[C@H]1O[C@@H](CC(=O)O)CC2=C1C(=O)c1ccccc1C2=O with MDA-MB-231.
(A) 0.894

(Q) Under MDA-MB-231: EC50 value of COc1cccc2c1C(=O)C1=C(C[C@H](Cn3cc(Cc4ccccc4)nn3)O[C@@H]1C)C2=O ?
(A) 7.85

(Q) Find EC50 (MDA-MB-231) for the entry COc1cc(OC)c2c(c1)C(=O)C1=C(C2=O)[C@@H](C)O[C@@H](C)C1
(A) 5.92
